# Tested on: Bacillus subtilis
# experiment.description: cleaved RNA product abundance (RNA/gDNA barcode ratio) relative to median wild-type variant (ratio to wild type); higher = more accumulation of the downstream cleavage product
# setup.conditions: experiment (reporter, strain, medium): exp 2b: truncated aprE reporter, strain BJT200; cleavage site: cggR-gapA (positions -7 to +36 mutated)
outcome.measure: cleaved RNA product abundance
Enter the number alone.

For orientation, consider the following solved cases.
1. ACAGACGAAGGAGCCGCAAAGAAGTTATTAAGCGATGAATAATCCCTCAATATAAATAACTCTCACTTATTTAAA	0.114
2. ACAGACGAAGGAGCCGCAAAGAAGTTATTAACGGATGAATAATCCCTCAAAATAAATATCTCTCACTTATTTAAA	0.105
3. ACAGACGAAGGAGCCGCAAAGAACTTATTAAGGTATGAATAATCCCTCAATATAAATATCTCTCACTTATTTAAA	0.0959
4. ACAGACGAAGGAGCCGCAAAGAAGTAATTAAGGGATGAATAATCCCTCAATATATATATCTCTCACTTATTTAAA	0.2
5. ACAGACGAAGGAGCCGCAAAGAAGGTATTAAGGGATGAATAATCCCTAAATATAAATATCTCTCACTTATTTAAA	0.994
6. ACAGACGAAGGAGCCGCAAAGAAGTTATTAAGGCATGAATAATCCTTCAATATAAATATCTCTCACTTATTTAAA	0.115
7. ACAGACGAAGGAGCCGCAAAGAAGTTCTTAAGGGATGAATAATCCCTCAATATAAATATCTCTCACTTATTTAAA	0.168
8. ACAGACGAAGGAGCCGCAAAGAAGTTATTAAAGGATGACTAATCCCTCAATATAAATATCTCTCACTTATTTAAA	0.0975

Entry ACAGACGAAGGAGCCGCAAAGAAGTTATTAAGGCATGATTAATCCCTCAATATAAATATCTCTCACTTATTTAAA under Bacillus subtilis had cleaved RNA product abundance of 0.125

Value (cleaved RNA product abundance, Bacillus subtilis) for record ACAGACGAAGGAGCCGCAAAAAAGTTATTAAGGGATGAATAATCCCACAATATAAATATCTCTCACTTATTTAAA = 0.237

====

Attribute: cleaved RNA product abundance
# Test system: Bacillus subtilis
# experiment.description: cleaved RNA product abundance (RNA/gDNA barcode ratio) relative to median wild-type variant (ratio to wild type); higher = more accumulation of the downstream cleavage product
# setup.conditions: experiment (reporter, strain, medium): exp 4a: truncated aprE reporter, strain BJT201 with 2% xylose (RNase J1 expressed); cleavage site: cggR-gapA (positions -7 to +36 mutated)
No unit in the answer, please; the number alone is enough.

Sample answers from the record:
1) ACAGACGAAGGAGCCGCAAACAAGTTATTAAGGGATGAATAATCCCTCAATATAACTATCTCTCACTTATTTAAA	0.0791
2) ACAGACGAAGGAGCCGCAAAAAAGTTATTAAGGGATGAATTATCCCTCAATATAAATATCTCTCACTTATTTAAA	0.808
3) ACAGACGAAGGAGCCGCAAAGAAGTTATTAAGGGATGAATAATCCCTCATTATAAATATCTCTCACTTATTTAAA	0.383
4) ACAGACGAAGGAGCCGCAAAGAAGTTATTAAGGGATGAATAACCCCTCCATATAAATATCTCTCACTTATTTAAA	0.178

ACAGACGAAGGAGCCGCAAATAAGTTATTAAGGTATGAATAATCCCTCAATATAAATATCTCTCACTTATTTAAA yielded cleaved RNA product abundance of 0.139

Value of cleaved RNA product abundance reported for the sequence ACAGACGAAGGAGCCGCAAAGAAGTTATTAAGGGATGAATAAACCATCAATATAAATATCTCTCACTTATTTAAA is 0.101

The sequence listed as ACAGACGAAGGAGCCGCAAAGAAGTTATTAAGGGATGATTTATCCCTCAATATAAATATCTCTCACTTATTTAAA has a reported cleaved RNA product abundance of 0.771

ACAGACGAAGGAGCCGCAAAGAAGTTATTAAGGGAAGAATAATCCCTCAATATATATATCTCTCACTTATTTAAA yielded cleaved RNA product abundance of 0.563

For this sequence ( ACAGACGAAGGAGCCGCAAAGAAGTTATTAAGGGATGAATAATCCCGCAATATAAATATCTCTCACTTATTTAAA ), measured cleaved RNA product abundance is 0.244

Looking up ACAGACGAAGGAGCCGCAAAGAAGTTATAAAGGGATGAATGATCCCTCAATATAAATATCTCTCACTTATTTAAA , I found its cleaved RNA product abundance recorded as 0.273

For reference, reported cleaved RNA product abundance for ACAGACGAAGGAGCCGCAGAGAAGTTTTTAAGGGATGAATAATCCCTCAATATAAATATCTCTCACTTATTTAAA stands at 0.37

====

# Tested on: Bacillus subtilis
# experiment.description: cleaved RNA product abundance (RNA/gDNA barcode ratio) relative to median wild-type variant (ratio to wild type); higher = more accumulation of the downstream cleavage product
# setup.conditions: experiment (reporter, strain, medium): exp 8a: truncated aprE reporter, strain BJT201 with 2% xylose (RNase J1 expressed); cleavage site: glnRA (positions -5 to +31 mutated)
outcome.measure: cleaved RNA product abundance

1. CGACATGTCCCGCTTCTTTCATTAATCCGTTACCATCTGTTTTGCTATATACATTTACCTTTTAAGAGGAGGAAT	0.163

Form: item CGACATGTCCCGCTTCTTTCATTACTCCGTTAGCAACTATTTTGCTATATACATTTACCTTTTAAGAGGAGGAAT ; test system Bacillus subtilis; cleaved RNA product abundance: 1.31

Per the reported Bacillus subtilis data, CGACATGTCCCGCTTCTTTCATTAATCTGTTAGCAACTGTTTTGCTATAGACATTTACCTTTTAAGAGGAGGAAT has cleaved RNA product abundance of 0.968

Observed cleaved RNA product abundance, Bacillus subtilis, CGACATGTCCCGCTTCTTTCATTAATCCAATAGCAACTGTTTTGCTATATACATTTACCTTTTAAGAGGAGGAAT : 0.553

Measured cleaved RNA product abundance (Bacillus subtilis), entry CGACATGTCCCGCTTCTTTCATTAATCCGTTAGCAACTGATTTGCTTTATACATTTACCTTTTAAGAGGAGGAAT : 0.282

Item CGACATGTCCCGCTTCTTTCATTAATCCGTTAGTAACTGTTTTGCTATATACATATACCTTTTAAGAGGAGGAAT ; assay system Bacillus subtilis; cleaved RNA product abundance reported as 0.305

Response field cleaved RNA product abundance (Bacillus subtilis) for item CGACATGTCCCGCTTCTTTCATTAATCCGTAAGGAACTGTTTTGCTATATACATTTACCTTTTAAGAGGAGGAAT : 0.32

====

# Test system: Bacillus subtilis
# experiment.description: cleaved RNA product abundance (RNA/gDNA barcode ratio) relative to median wild-type variant (ratio to wild type); higher = more accumulation of the downstream cleavage product
# setup.conditions: experiment (reporter, strain, medium): exp 4a: truncated aprE reporter, strain BJT201 with 2% xylose (RNase J1 expressed); cleavage site: cggR-gapA (positions -7 to +36 mutated)
sequences and their reported cleaved RNA product abundance
Please respond with just the number, no unit label.

1) ACAGACGAAGGAGCCGCAAAGAAGTTATTAATGGATCAATAATCCCTCAATATAAATATCTCTCACTTATTTAAA	0.127

Lab note: ACAGACGAAGGAGCCGCAAAGAAGTTATTAAGGGATGAATAAACCCACAATATAAATATCTCTCACTTATTTAAA gave cleaved RNA product abundance of 0.0828

cleaved RNA product abundance for ACAGACGAAGGAGCCGCAAAGAAGTTATTAAGGGTTGAATAAGCCCTCAATATAAATATCTCTCACTTATTTAAA is 0.608

====

# Test system: Bacillus subtilis
# experiment.description: cleaved RNA product abundance (RNA/gDNA barcode ratio) relative to median wild-type variant (ratio to wild type); higher = more accumulation of the downstream cleavage product
# setup.conditions: experiment (reporter, strain, medium): exp 8a: truncated aprE reporter, strain BJT201 with 2% xylose (RNase J1 expressed); cleavage site: glnRA (positions -5 to +31 mutated)
Below, each entry is listed alongside its reported cleaved RNA product abundance.
# answer = number (no unit)

1. CGACATGTCCCGCTTCTTTCATTAATCCGATAGAAACTGTTTTGCTATATACATTTACCTTTTAAGAGGAGGAAT	0.302

The sequence CGACATGTCCCGCTTCTTTCATTAATCCGATAGCAACTGTTTTGATATATACATTTACCTTTTAAGAGGAGGAAT showed cleaved RNA product abundance equal to 0.325

====

Reported cleaved RNA product abundance values are given for each entry in this list.
# System: Bacillus subtilis
# experiment.description: cleaved RNA product abundance (RNA/gDNA barcode ratio) relative to median wild-type variant (ratio to wild type); higher = more accumulation of the downstream cleavage product
# setup.conditions: experiment (reporter, strain, medium): exp 2b: truncated aprE reporter, strain BJT200; cleavage site: cggR-gapA (positions -7 to +36 mutated)
Form: value (number only, do not type unit).

Please review the following examples before continuing.
1) ACAGACGAAGGAGCCGCAAAGAAGTTAGTACGGGATGAATAATCCCTCAATATAAATATCTCTCACTTATTTAAA	0.269
2) ACAGACGAAGGAGCCGCAAAGAAGTTATTACGTGATGAATAATCCCTCAATATAAATATCTCTCACTTATTTAAA	0.0928
3) ACAGACGAAGGAGCCGCAAAGAAGTTATTAAGGGATGAAAACTCCCTCAATATAAATATCTCTCACTTATTTAAA	0.816

// below: cleaved RNA product abundance requested for another sequence
Param item: ACAGACGAAGGAGCCGCAAAGAAGTTATTCAGGCATGAATAATCCCTCAATATAAATATCTCTCACTTATTTAAA ; param system: Bacillus subtilis; output cleaved RNA product abundance: 0.0983
